These entries and their values trace back to paper PMC5971061.

# hemolysis at 1 h per entry
Experiment: Hemolytic activity assay
Assay type: cell-based, murine
Settings: mouse, murine red blood cells (mRBCs); at their MIC values against the Aspergillus strains

Take a look at these entries with their results.
{"Molecule": "CCCCCCCCCCCCS(=O)(=O)C[C@H]1O[C@H](O[C@@H]2[C@@H](O)[C@H](O[C@H]3O[C@H](CN)[C@@H](O)C[C@H]3N)[C@@H](N)C[C@H]2N)[C@H](O)[C@@H](N)[C@@H]1O [Compound 4]", "Test value": "4 to 32%"}
{"Molecule": "CCCCCCCCCCCCc1cn(C[C@H]2O[C@H](O[C@@H]3[C@@H](O)[C@H](O[C@H]4O[C@H](CN)[C@@H](O)C[C@H]4N)[C@@H](N)C[C@H]3N)[C@H](O)[C@@H](N)[C@@H]2O)nn1 [Compound 7b]", "Test value": "12 to 74%"}
{"Molecule": "CCCCCCCCCCCC(=O)NC[C@H]1O[C@H](O[C@@H]2[C@@H](O)[C@H](O[C@H]3O[C@H](CN)[C@@H](O)C[C@H]3N)[C@@H](N)C[C@H]2N)[C@H](O)[C@@H](N)[C@@H]1O [Compound 9]", "Test value": "4 to 32%"}

Could you now consider this next molecule?
Need hemolysis at 1 h of CCCCCCCCCCCCSC[C@H]1O[C@H](O[C@@H]2[C@@H](O)[C@H](O[C@H]3O[C@H](CN)[C@@H](O)C[C@H]3N)[C@@H](N)C[C@H]2N)[C@H](O)[C@@H](N)[C@@H]1O [Compound 3] , thanks.
12 to 74%
